Target: Gal-4 hPPARα (Homo sapiens)
Construct: Plasmids pGal4-hPPARα, pGal4-hPPARγ, pGal4-hPPARδ and pG5-TK-pGL3 were constructed as previously described by Staels, Bart, et al., Nature 1998 Jun; 25
Sequence (Q07869 200-468 limits assumed): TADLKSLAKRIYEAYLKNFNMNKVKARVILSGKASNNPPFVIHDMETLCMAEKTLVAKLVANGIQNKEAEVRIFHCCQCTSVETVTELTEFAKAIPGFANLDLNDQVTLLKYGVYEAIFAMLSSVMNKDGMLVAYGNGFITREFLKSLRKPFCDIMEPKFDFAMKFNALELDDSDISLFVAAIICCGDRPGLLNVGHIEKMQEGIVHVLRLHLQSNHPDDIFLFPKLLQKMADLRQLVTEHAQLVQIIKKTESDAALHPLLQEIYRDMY
Experiment: Gal4-hPPARα transient transfection reporter assay in Cos cells
Settings: luciferase reporter, 24 hours with compound, scale 1-5, read-out: Gal-4 hPPAR α EC50 (scaled number)
Reported EC50 values follow for various compounds

CCCn1c(COC(=O)c2ccc(SC(C)(C)C(=O)O)cc2)nn(Cc2ccc(C(C)(C)C)cc2)c1=O [Compound 159]    1 to 50 nM
CCn1c(COC(=O)c2ccc(SC(C)(C)C(=O)O)cc2)nn(Cc2ccc(C(F)(F)F)cc2)c1=O [Compound 197]    1 to 50 nM
COc1ccc(Cn2cc(COC(=O)c3ccc(SC(C)(C)C(=O)O)cc3)cn2)cc1 [Compound 8]    51 to 200 nM

Task item: Item: CC(C)c1ccc(-n2cc(COC(=O)c3ccc(SC(C)(C)C(=O)O)cc3)nn2)cc1 [Compound 56] Test system: Gal-4 hPPARα (Homo sapiens) Read-out: EC50 Value: ?
Reply: 51 to 200 nM

Source of measurements: patent US20100184815A1
